Just for reference, ChEMBL document CHEMBL4477253 is where these values come from.

Measurement Description: Drug uptake in C57BL/6 mouse brain at 3 mg/kg, sc measured after 60 mins
Format: ADME, organism-based
Run Conditions: read-out: Drug uptake
Measured Attribute: concentration at 1 h (nM)
Answer in nM, number only, no unit symbol.

Query string: Entry `O=C1N[C@H](c2cncc(C#Cc3ncccc3F)c2)[C@@H](c2ccc(F)cc2)O1` : reported concentration at 1 h = ?
Result string: 182

====

Reported fraction unbound is given for each of the following molecules.
Measurement Description: Fraction unbound in rat serum
Type: ADME, cell-free

In the examples that follow, each entry is paired with its recorded fraction unbound.
>>> result("O=C1N[C@H](c2cncc(C#Cc3ccccc3)c2)[C@@H](c2ccccc2)O1")
0.007
>>> result("O=C1N[C@H](c2ccnc(C#Cc3ccccc3)c2)[C@@H](c2ccccc2)O1")
0.012

Query string: Entry `O=C1N[C@H](c2cccc(C#Cc3ccccc3)n2)[C@@H](c2ccccc2)O1` : reported fraction unbound = ?
Result string: 0.009

Query string: Input `O=C1N[C@H](c2cccc(C#Cc3ccccc3)c2)[C@@H](c2ccccc2)O1`
Result string: 0.001

Query string: Input `O=C1N[C@H](c2cc(C#Cc3ccccc3)ccn2)[C@@H](c2ccccc2)O1`
Result string: 0.009
